# measurement.protocol: Selectivity index, ratio of CC50 for human mock-infected MT4 cells to EC50 for HIV1 3B harboring reverse transcriptase E138K mutant infected in human MT4 cells
# Assay type: toxicity, cell-based
# condition: MT4 cells (mock-infected for CC50, HIV-1 infected for EC50)
I'd be grateful if you could share measured selectivity ratio for these entries.
Answers are plain numbers.

chem.smiles	selectivity ratio
Cc1cc(C#N)cc(C)c1Oc1nc(NC2CCN(Cc3ccncc3)CC2)nc2ccsc12	489

Give selectivity ratio for each listed item.
1. Cc1cc(C)c(Oc2nc(NC3CCN(Cc4ccc(C(N)=O)cc4)CC3)nc3ccsc23)c(C)c1
2. Cc1cc(C)c(Oc2nc(NC3CCN(Cc4ccc([N+](=O)[O-])cc4)CC3)nc3ccsc23)c(C)c1
3. Cc1cc(C)c(Oc2nc(NC3CCN(Cc4cccc(C(N)=O)c4)CC3)nc3ccsc23)c(C)c1

A.
265
51
149

====

# System: Human immunodeficiency virus 1
# measurement.protocol: Antiviral activity against wild type HIV1 3B harboring reverse transcriptase infected in human MT4 cells assessed as protection against virus induced cytotoxicity after 5 days by MTT assay
# Type: functional, cell-based
# condition: Human immunodeficiency virus 1, 3B, MT4, 120 h
pEC50: −log10 of the molar value.
Label 1 when pEC50 is at or above 8; anything below gets 0.

Solved cases below.
chem.smiles	target.desc	category
Cc1cc(C#N)cc(C)c1Oc1nc(NC2CCN(Cc3ccc(F)cc3F)CC2)nc2ccsc12	Human immunodeficiency virus 1	0
Cc1cc(C)c(Oc2nc(NC3CCN(Cc4cccc(F)c4)CC3)nc3ccsc23)c(C)c1	Human immunodeficiency virus 1	0
CNS(=O)(=O)c1ccc(CN2CCC(Nc3nc(Oc4c(C)cc(C#N)cc4C)c4sccc4n3)CC2)cc1	Human immunodeficiency virus 1	1
Cc1cc(C#N)cc(C)c1Oc1nc(NC2CCN(Cc3cccc(S(N)(=O)=O)c3)CC2)nc2ccsc12	Human immunodeficiency virus 1	1

Q. Please indicate if the recorded pEC50 for `Cc1cc(C#N)cc(C)c1Oc1nc(NC2CCN(Cc3ccc(NS(C)(=O)=O)cc3)CC2)nc2ccsc12` meets or exceeds 8.
A. 1

Q. Please indicate if the recorded pEC50 for `Cc1cc(C#N)cc(C)c1Oc1nc(NC2CCN(Cc3cccc(C(N)=O)c3)CC2)nc2ccsc12` meets or exceeds 8.
A. 1

Q. Please indicate if the recorded pEC50 for `Cc1cc(C)c(Oc2nc(NC3CCN(Cc4ccc(S(N)(=O)=O)cc4)CC3)nc3ccsc23)c(C)c1` meets or exceeds 8.
A. 0

Q. Please indicate if the recorded pEC50 for `CCOC(=O)c1ccc(CN2CCC(Nc3nc(Oc4c(C)cc(C#N)cc4C)c4sccc4n3)CC2)cc1` meets or exceeds 8.
A. 0

====

I'd be grateful if you could share measured pEC50 for these entries.
# Tested on: Human immunodeficiency virus 1
# measurement.protocol: Antiviral activity against HIV1 3B harboring reverse transcriptase F227L/V106A double mutant infected in human MT4 cells assessed as protection against virus induced cytotoxicity after 5 days by MTT assay
# Format: functional, cell-based
# condition: Human immunodeficiency virus 1, 3B, MT4, 120 h
Give bare numbers, as −log10 of the molar value.

See these solved cases before continuing.
chem.smiles	pEC50
Cc1cc(C#N)cc(C)c1Oc1nc(NC2CCN(Cc3ccc(S(N)(=O)=O)cc3)CC2)nc2ccsc12	8.38
Cc1cc(C#N)cc(C)c1Oc1nc(NC2CCN(Cc3ccc(S(C)(=O)=O)cc3)CC2)nc2ccsc12	7.36
Cc1cc(C#N)cc(C)c1Oc1nc(NC2CCN(Cc3ccc(F)cc3)CC2)nc2ccsc12	6.15
Cc1cc(C)c(Oc2nc(NC3CCN(Cc4cccc(F)c4)CC3)nc3ccsc23)c(C)c1	5.51
Cc1cc(C#N)cc(C)c1Oc1nc(NC2CCN(Cc3ccncc3)CC2)nc2ccsc12	6.89
Cc1cc(C#N)cc(C)c1Oc1nc(NC2CCN(Cc3ccc(NS(C)(=O)=O)cc3)CC2)nc2ccsc12	7.49

Give pEC50 for each listed item.
1. CNS(=O)(=O)c1ccc(CN2CCC(Nc3nc(Oc4c(C)cc(C#N)cc4C)c4sccc4n3)CC2)cc1
2. CCOC(=O)c1ccc(CN2CCC(Nc3nc(Oc4c(C)cc(C#N)cc4C)c4sccc4n3)CC2)cc1
3. O=C1Nc2ccc(Cl)cc2[C@@](C#CC2CC2)(C(F)(F)F)O1
4. Cc1cc(C#N)cc(C)c1Oc1nc(NC2CCN(Cc3ccc(C(N)=O)cc3)CC2)nc2ccsc12

A.
1: 8.39; 2: 4.89; 3: 6.46; 4: 7.97

Give pEC50 for each listed item.
1. COC(=O)c1ccc(CN2CCC(Nc3nc(Oc4c(C)cc(C)cc4C)c4sccc4n3)CC2)cc1
2. Cc1cc(C)c(Oc2nc(NC3CCN(Cc4cccc(C#N)c4)CC3)nc3ccsc23)c(C)c1
3. Cc1cc(C)c(Oc2nc(NC3CCN(Cc4ccncc4)CC3)nc3ccsc23)c(C)c1
4. Cc1cc(C)c(Oc2nc(NC3CCN(Cc4cccc(C(N)=O)c4)CC3)nc3ccsc23)c(C)c1
5. Cc1cc(C)c(Oc2nc(NC3CCN(Cc4ccc(F)cc4)CC3)nc3ccsc23)c(C)c1
6. CC(=O)NS(=O)(=O)c1ccc(CN2CCC(Nc3nc(Oc4c(C)cc(C#N)cc4C)c4sccc4n3)CC2)cc1

A.
1: 5.73; 2: 6.41; 3: 6.88; 4: 6.07; 5: 5.27; 6: 8.06
